System: Escherichia coli TOP10;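 note: peptides expressed intracellularly from a pBAD plasmid library in pooled LB shake-flask culture, induced with 0.3% L-arabinose, DNA abundance read by NGS, three biological replicates, DESeq2 with apeglm shrinkage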
assay-name: shrunken log2 fold change of peptide-encoding DNA abundance (4.5 h post-induction vs induction); higher = less antimicrobial activity (less host growth inhibition)
reported-conditions: time post-induction: 4.5 h; library: site-saturation at positions 5, 18, 19, 20
Output: class label from shrunken log2 fold change. Mapping: low value = under -0.1, medium value = from -0.1 up to 0.06, high value = 0.06 and over

[[record]]
polymer_sequence = "RRIRDRPPRLPRPRPRPNRIPRP"
classification = "low value"

[[record]]
polymer_sequence = "RRIRMRPPRLPRPRPRPGKSPRP"
classification = "medium value"

[[record]]
polymer_sequence = "RRIRFRPPRLPRPRPRPQCGPRP"
classification = "medium value"

[[record]]
polymer_sequence = "RRIRERPPRLPRPRPRPKQFPRP"
classification = "medium value"

[[record]]
polymer_sequence = "RRIRDRPPRLPRPRPRPCQIPRP"
classification = "high value"

[[record]]
polymer_sequence = "RRIRCRPPRLPRPRPRPVINPRP"
classification = "low value"

[[record]]
polymer_sequence = "RRIRLRPPRLPRPRPRPHLYPRP"
classification = "high value"

[[record]]
polymer_sequence = "RRIRARPPRLPRPRPRPWCIPRP"
classification = "low value"

[[record]]
polymer_sequence = "RRIRDRPPRLPRPRPRPSYHPRP"
classification = "low value"

[[record]]
polymer_sequence = "RRIRVRPPRLPRPRPRPAPDPRP"
classification = "high value"

[[record]]
polymer_sequence = "RRIRMRPPRLPRPRPRPMTQPRP"
classification = "high value"

[[record]]
polymer_sequence = "RRIRCRPPRLPRPRPRPHNDPRP"
classification = "low value"

[[record]]
polymer_sequence = "RRIRCRPPRLPRPRPRPFGMPRP"
classification = "medium value"

[[record]]
polymer_sequence = "RRIRWRPPRLPRPRPRPSCYPRP"
classification = "low value"

[[record]]
polymer_sequence = "RRIRWRPPRLPRPRPRPRFEPRP"
classification = "high value"

[[record]]
polymer_sequence = "RRIRWRPPRLPRPRPRPHAGPRP"
classification = "medium value"

[[record]]
polymer_sequence = "RRIRMRPPRLPRPRPRPVRMPRP"
classification = "high value"

[[record]]
polymer_sequence = "RRIRDRPPRLPRPRPRPMQIPRP"
classification = "medium value"

[[record]]
polymer_sequence = "RRIRERPPRLPRPRPRPIGMPRP"
classification = "high value"

[[record]]
polymer_sequence = "RRIRVRPPRLPRPRPRPWKVPRP"
classification = "medium value"

[[record]]
polymer_sequence = "RRIRYRPPRLPRPRPRPGRWPRP"
classification = "high value"

[[record]]
polymer_sequence = "RRIRLRPPRLPRPRPRPMHKPRP"
classification = "low value"

[[record]]
polymer_sequence = "RRIRMRPPRLPRPRPRPIAMPRP"
classification = "medium value"

[[record]]
polymer_sequence = "RRIRDRPPRLPRPRPRPGYLPRP"
classification = "low value"

[[record]]
polymer_sequence = "RRIRERPPRLPRPRPRPPYCPRP"
classification = "low value"

[[record]]
polymer_sequence = "RRIRDRPPRLPRPRPRPLSMPRP"
classification = "low value"

[[record]]
polymer_sequence = "RRIRNRPPRLPRPRPRPEIYPRP"
classification = "medium value"

[[record]]
polymer_sequence = "RRIRERPPRLPRPRPRPNCPPRP"
classification = "low value"

[[record]]
polymer_sequence = "RRIRQRPPRLPRPRPRPHDWPRP"
classification = "low value"

[[record]]
polymer_sequence = "RRIRQRPPRLPRPRPRPYGWPRP"
classification = "low value"

[[record]]
polymer_sequence = "RRIRYRPPRLPRPRPRPSHYPRP"
classification = "low value"

[[record]]
polymer_sequence = "RRIRTRPPRLPRPRPRPYQMPRP"
classification = "medium value"

[[record]]
polymer_sequence = "RRIRRRPPRLPRPRPRPGWWPRP"
classification = "high value"

[[record]]
polymer_sequence = "RRIRSRPPRLPRPRPRPLCPPRP"
classification = "medium value"

[[record]]
polymer_sequence = "RRIRGRPPRLPRPRPRPTERPRP"
classification = "high value"

[[record]]
polymer_sequence = "RRIRSRPPRLPRPRPRPTIAPRP"
classification = "high value"

[[record]]
polymer_sequence = "RRIRVRPPRLPRPRPRPATMPRP"
classification = "low value"

[[record]]
polymer_sequence = "RRIRRRPPRLPRPRPRPDVWPRP"
classification = "high value"

[[record]]
polymer_sequence = "RRIRVRPPRLPRPRPRPYMDPRP"
classification = "medium value"

[[record]]
polymer_sequence = "RRIRFRPPRLPRPRPRPYWEPRP"
classification = "low value"

[[record]]
polymer_sequence = "RRIRHRPPRLPRPRPRPETKPRP"
classification = "medium value"

[[record]]
polymer_sequence = "RRIRMRPPRLPRPRPRPRGMPRP"
classification = "high value"

[[record]]
polymer_sequence = "RRIRTRPPRLPRPRPRPHASPRP"
classification = "medium value"

[[record]]
polymer_sequence = "RRIRRRPPRLPRPRPRPTNCPRP"
classification = "low value"

[[record]]
polymer_sequence = "RRIRVRPPRLPRPRPRPMITPRP"
classification = "high value"

[[record]]
polymer_sequence = "RRIRCRPPRLPRPRPRPVGLPRP"
classification = "high value"

[[record]]
polymer_sequence = "RRIRWRPPRLPRPRPRPIQDPRP"
classification = "medium value"

[[record]]
polymer_sequence = "RRIRVRPPRLPRPRPRPKMQPRP"
classification = "high value"

[[record]]
polymer_sequence = "RRIRFRPPRLPRPRPRPTCMPRP"
classification = "medium value"

[[record]]
polymer_sequence = "RRIRVRPPRLPRPRPRPHTPPRP"
classification = "low value"

